Would you kindly list inhibition for each of these compounds?
Measured on: Protein kinase C beta type (Homo sapiens) (UniProt P05771)
Sequence (P05771 2-671 limits assumed): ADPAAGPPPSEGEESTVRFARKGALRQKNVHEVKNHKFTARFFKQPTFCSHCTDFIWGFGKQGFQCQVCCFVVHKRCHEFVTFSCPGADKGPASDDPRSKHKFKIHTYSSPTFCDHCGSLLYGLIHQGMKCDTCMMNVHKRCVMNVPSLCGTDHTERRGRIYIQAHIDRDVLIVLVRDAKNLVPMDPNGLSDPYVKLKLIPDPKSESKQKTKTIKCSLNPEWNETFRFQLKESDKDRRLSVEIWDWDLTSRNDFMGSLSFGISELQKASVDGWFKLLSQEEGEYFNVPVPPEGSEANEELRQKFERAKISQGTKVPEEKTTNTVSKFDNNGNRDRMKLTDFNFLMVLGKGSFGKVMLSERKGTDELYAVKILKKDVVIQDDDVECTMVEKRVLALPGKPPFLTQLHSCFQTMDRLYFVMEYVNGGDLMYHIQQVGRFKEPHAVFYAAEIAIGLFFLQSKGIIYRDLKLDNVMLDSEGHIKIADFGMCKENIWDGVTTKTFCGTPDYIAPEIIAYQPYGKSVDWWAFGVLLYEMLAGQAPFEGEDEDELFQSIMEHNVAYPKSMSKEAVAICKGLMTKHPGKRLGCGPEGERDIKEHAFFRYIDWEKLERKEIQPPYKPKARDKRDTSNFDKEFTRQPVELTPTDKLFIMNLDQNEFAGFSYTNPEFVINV
Particulars: at 0.1 µM
Description: GSK_PKIS: PKC-beta1 (splice variant) mean inhibition at 0.1 uM [Nanosyn]
// units = %; emit number, no label

In: API: value(readout= inhibition, system= Protein kinase C beta type (Homo sapiens) (UniProt P05771), query= Cc1ccc2c(-c3ccnc(Nc4ccccc4)n3)c(-c3ccc(F)cc3)nn2n1 );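 also: PKC-beta1 splice variant of the enzyme, figure reported as mean inhibition, measured within the GSK PKIS kinase profiling panel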
Out: 1.13

In: Fc1ccc(-c2cc(-c3c[nH]nc3-c3ccccn3)ccn2)cc1 , same question.
Out: 1.93

In: CCCN1CCC(c2ccc(Nc3nc(Nc4cc(F)ccc4C(N)=O)c4cc[nH]c4n3)c(OC)c2)CC1 , same question.
Out: 0.19

In: N#Cc1c(NC(=O)c2ccc(F)cc2)sc2c1CCCC2 , same question.
Out: -1.4

In: c1cc(-c2cnn3nc(N4CCOCC4)ccc23)nc(NC2CC2)n1 , same question.
Out: -0.45

In: CNC(=O)c1cncc(/C=C/c2ccccc2Cl)c1 , same question.
Out: 2.7

In: CCn1c(-c2nonc2N)nc2c(C#CC(C)(C)O)ncc(OC3CCNCC3)c21 , same question.
Out: 41.8

In: COc1ccc(-c2cc3c(N)ncnc3o2)cc1 , same question.
Out: -0.74

In: O=C(Nc1n[nH]c2cc(-c3ccc(F)cc3)ccc12)C1CC1 , same question.
Out: 2.92

In: COc1ccc(CNC(=O)c2ccc(-c3cc(-c4nnc(C)o4)ccc3C)cc2)cc1 , same question.
Out: 6.66

In: COc1cc(N2CCN(C(C)C)CC2)ccc1Nc1nc(Nc2ccc(F)cc2C(N)=O)c2cc[nH]c2n1 , same question.
Out: 1.83

In: Cc1cccc(Nc2ncc(-c3ccccc3)o2)c1 , same question.
Out: 3.52

In: CCn1c(-c2nonc2N)nc2cnc(Oc3cccc(NC(=O)c4ccc(N(C)C)cc4)c3)cc21 , same question.
Out: 16.7

In: COc1cc2c(cc1Nc1nc(Nc3ccsc3C(N)=O)c3cc[nH]c3n1)N(C(=O)CN(C)C)CCC2(C)C , same question.
Out: 2.16

In: CCc1nn2ncccc2c1-c1ccnc(NC2CC2)n1 , same question.
Out: 1.02

In: CN(C)CCOc1ccc(-c2nc(-c3ccncc3)c(-c3ccc4c(c3)CC/C4=N\O)[nH]2)cc1 , same question.
Out: 1.27

In: NS(=O)(=O)c1ccc(N/N=C2\C(=O)Nc3ccc4ncccc4c32)cc1 , same question.
Out: -0.44

In: CCN1CCC(CC(=O)Nc2n[nH]c3nnc(-c4cccc(F)c4F)cc23)CC1 , same question.
Out: 2.14

In: COC(=O)Nc1nc2ccc(S(=O)(=O)c3ccc(NC(=O)Nc4cc(C(F)(F)F)ccc4F)cc3)cc2[nH]1 , same question.
Out: 0.31

In: O=S(=O)(CCNCc1ccc(-c2ccc3ncnc(Nc4ccc(OCc5cccc(F)c5)c(Cl)c4)c3c2)o1)c1ccccc1 , same question.
Out: 0.95

In: COc1cccc(-n2ncc3c(N/N=C/c4ccc(F)cc4)ncnc32)c1 , same question.
Out: 1.01

====

Measured on: Vascular endothelial growth factor receptor 2 (Homo sapiens)
Particulars: at 1 µM
Value type: inhibition
Please answer using the number first and the unit second.

In: API: value(readout= inhibition, system= Vascular endothelial growth factor receptor 2 (Homo sapiens), query= Nc1nc(-c2cccc(Cl)c2)c(-c2ccc3ncccc3n2)s1 );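 also: each value is the mean percent inhibition of KDR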
Out: 67.4%

In: Nc1nc(-c2ccc(F)cc2)c(-c2ccc3ncccc3n2)s1 , same question.
Out: 71.1%

In: CCn1c(-c2nonc2N)nc2c(C#CC(C)(C)O)nc(OC[C@H](N)c3ccccc3)cc21 , same question.
Out: 96.1%

In: c1ccc(COc2ccc(Nc3ncnc4ccc(-c5ccco5)cc34)cc2)cc1 , same question.
Out: -0.38%

In: CNC(=O)c1cccc(C#Cc2cncnc2Nc2ccc(OCc3cccc(F)c3)c(Cl)c2)c1 , same question.
Out: 3.79%
